This collection of values is drawn from patent US11844801B2.

Assay: Phase 1 SAD/MAD pharmacokinetics of oral ATI-450 in healthy subjects (incl. 80/120 mg BID extension)
Assay type: in vivo, human
Details: both sexes, human, plasma, oral, 10 mg, 10 mg BID, day 6; read-out: Ctrough
measurement name: concentration at 6 day (µg/mL)
Report the figure in µg/mL without appending any unit label.

QUERY: // returns reported concentration at 6 day for input Cc1cnc(-c2ccnc(C(C)(C)O)n2)cc1-n1c(C)cc(OCc2ncc(F)cc2F)c(Cl)c1=O (single isomer, unassigned)
RESULT: 0.0107

* * *

Assay: Phase 1 SAD/MAD pharmacokinetics of oral ATI-450 in healthy subjects (incl. 80/120 mg BID extension)
Type: in vivo, human
Conditions: both sexes, human, plasma, po, 100 mg, single oral dose 100 mg, fed (high-fat, high-calorie breakfast); read-out: Cmax
Protocol: Study Design. […] Single ascending dose (SAD) cohorts. […] Multiple ascending dose (MAD) cohorts. […] Blood Sampling and Bioanalysis. Two-milliliter blood samples were collected for PK analysis. […] The lower limit of quantification was 0.500 ng/mL. Pharmacokinetics. […] The method was minimally required to have intra- and inter-day precision (coefficients of variation) for pooled plasma quality control samples of ≤15% except at the lower limit of quantitation, where ≤20% was acceptable. […]
measurement name: Cmax (ng/mL)
Write it as a number; the unit ng/mL goes unstated.

QUERY: Could you tell me which Cmax is on file for Cc1cnc(-c2ccnc(C(C)(C)O)n2)cc1-n1c(C)cc(OCc2ncc(F)cc2F)c(Cl)c1=O (single isomer, unassigned) ?
RESULT: 371

* * *

Test system: TNF-α
Test: Mouse neutrophil (mPMN) IL-1α stimulated TNF-α
Assay type: cell-based
Details: Mus musculus, Neutrophil; mPMN; IL-1α, 10 ng/mL, 4 hr
measurement name: pIC50
Kindly note that pIC50 refers to -log10 of the concentration in mol/L and answer with the value alone.

QUERY: GET /values?readout=pIC50&item= Cc1cnc(-c2ccnc(C(C)(C)O)n2)cc1-n1c(C)cc(OCc2ncc(F)cc2F)c(Cl)c1=O (single isomer, unassigned)
RESULT: 8.30

* * *

Assay: Phase 1 SAD/MAD pharmacokinetics of oral ATI-450 in healthy subjects (incl. 80/120 mg BID extension)
Format: in vivo, human
Conditions: both sexes, human, plasma, oral, 30 mg, 30 mg BID, day 1; read-out: AUC0-12
measurement name: AUC(0-t) (µg·h/mL)
Give just the number in µg·h/mL; leave the unit off.

QUERY: # get_value(readout='AUC(0-t)', item= Cc1cnc(-c2ccnc(C(C)(C)O)n2)cc1-n1c(C)cc(OCc2ncc(F)cc2F)c(Cl)c1=O (single isomer, unassigned) )
RESULT: 0.681
